pEC50 by entry:
Test system: SH-SY5Y M-currents (KCNQ2, KCNQ3 and KCNQ5)
Assay: SH-SY5Y native cell line FLIPR assay (voltage-sensitive dye DiBAC)
Type: cell-based, mouse neuroblastoma, rat glioma hybrid cell line
Details: FLIPR assay, SH-SY5Y native cell line; Table 2; read-out: SH-SY5Y EC50
pEC50: −log10 of the molar value.

- item.smiles: "O=C(Cc1ccc(Cl)cc1)Nc1nc2ccc(F)cn2c1-c1ccc(OC(F)(F)F)cc1"
  measurement.target: "SH-SY5Y M-currents (KCNQ2, KCNQ3 and KCNQ5)"
  pEC50: "> 6.30"
- item.smiles: "CC(C)(C)CC(=O)Nc1nc2ncccn2c1-c1cccc(Cl)c1"
  measurement.target: "SH-SY5Y M-currents (KCNQ2, KCNQ3 and KCNQ5)"
  pEC50: "5.00 to 5.52"
- item.smiles: "O=C(Cc1ccccc1)Nc1nc2ccc(F)cn2c1-c1ccc(C(F)(F)F)cc1"
  measurement.target: "SH-SY5Y M-currents (KCNQ2, KCNQ3 and KCNQ5)"
  pEC50: "> 6.30"
- item.smiles: "CC(C)(C)OCCC(=O)Nc1nc2ccc(F)cn2c1-c1cccc(OC(F)(F)F)c1"
  measurement.target: "SH-SY5Y M-currents (KCNQ2, KCNQ3 and KCNQ5)"
  pEC50: "> 6.30"
- item.smiles: "CC(=O)O[C@H](C(=O)Nc1nc2ccc(F)cn2c1-c1ccc(C(F)(F)F)cc1)C(C)(C)C"
  measurement.target: "SH-SY5Y M-currents (KCNQ2, KCNQ3 and KCNQ5)"
  pEC50: "5.00 to 5.52"
- item.smiles: "CC(C)(C)CCC(=O)Nc1nc2ccc(F)cn2c1-c1cccc(C(F)(F)F)c1"
  measurement.target: "SH-SY5Y M-currents (KCNQ2, KCNQ3 and KCNQ5)"
  pEC50: "> 6.30"
- item.smiles: "O=C(CCC(F)(F)F)Nc1nc2ccc(F)cn2c1-c1ccccc1"
  measurement.target: "SH-SY5Y M-currents (KCNQ2, KCNQ3 and KCNQ5)"
  pEC50: "5.52 to 6.30"
- item.smiles: "CC(C)(C)OCC(=O)Nc1nc2ccc(F)cn2c1-c1ccc(OC(F)(F)F)cc1"
  measurement.target: "SH-SY5Y M-currents (KCNQ2, KCNQ3 and KCNQ5)"
  pEC50: "5.00 to 5.52"

----------
Test system: SH-SY5Y M-currents (KCNQ2, KCNQ3 and KCNQ5)
Experiment: SH-SY5Y native cell line FLIPR assay (voltage-sensitive dye DiBAC)
Assay type: cell-based, mouse neuroblastoma, rat glioma hybrid cell line
Conditions: FLIPR assay, SH-SY5Y native cell line; Table 2; read-out: SH-SY5Y EC50
Experimental: […] Differentiated SH-SY5Y cells were loaded with voltage-sensitive dye by incubation in Earls Balanced Salt Solution (EBSS) containing 5 mM DiBAC for 1 h. […] Changes in fluorescence were measured every 30 s for 25 min. The maximum change in fluorescence was measured and expressed as a percentage of the maximum response obtained in the presence of a positive control agent.
pEC50: −log10 of the molar value.

- compound: "CC(C)C(C)C(=O)Nc1nc2ccc(F)cn2c1-c1ccc(OC(F)(F)F)cc1 (stereo not shown) [Compound 249]"
  pEC50: "> 6.30"
- compound: "O=C(Cc1ccc(F)cc1)Nc1nc2cc(Cl)c(Cl)cn2c1-c1ccc(OC(F)(F)F)cc1 [Compound 217]"
  pEC50: "5.52 to 6.30"
- compound: "O=C(COc1ccc(Cl)cc1Cl)Nc1nc2ccc(F)cn2c1-c1ccc(OC(F)(F)F)cc1 [Compound 247]"
  pEC50: "5.00 to 5.52"
- compound: "CC(Oc1ccccc1)C(=O)Nc1nc2ccc(F)cn2c1-c1ccc(OC(F)(F)F)cc1 (stereo not shown) [Compound 232]"
  pEC50: "5.00 to 5.52"
- compound: "Cc1ccc(CC(=O)Nc2nc3ccc(F)cn3c2-c2ccc(F)cc2)cc1 [Compound 143]"
  pEC50: "> 6.30"
- compound: "O=C(Cc1ccc(F)cc1)Nc1nc2ncc(Cl)cn2c1-c1cccc(Cl)c1 [Compound 320]"
  pEC50: "5.00 to 5.52"
- compound: "O=C(Cc1ccccc1)Nc1nc2ccc(F)cn2c1-c1cc(F)cc(F)c1 [Compound 228]"
  pEC50: "> 6.30"
- compound: "CC(C)(CO)CC(=O)Nc1nc2ccc(F)cn2c1-c1ccc(OC(F)(F)F)cc1 [Compound 192]"
  pEC50: "5.52 to 6.30"
- compound: "O=C(Cc1c(F)cccc1Cl)Nc1nc2ccc(F)cn2c1-c1ccc(F)cc1 [Compound 141]"
  pEC50: "5.00 to 5.52"
- compound: "CC(C)(C)OCC(=O)Nc1nc2ccc(F)cn2c1-c1ccc(C(F)(F)F)cc1 [Compound 206]"
  pEC50: "5.00 to 5.52"
- compound: "CC(C)(C)CC(=O)Nc1nc2ccc(F)cn2c1-c1ccc(C(F)(F)F)cc1 [Compound 128]"
  pEC50: "> 6.30"
- compound: "O=C(Cc1cc(F)cc(F)c1)Nc1nc2ccc(F)cn2c1-c1ccc(OC(F)(F)F)cc1 [Compound 242]"
  pEC50: "> 6.30"
- compound: "Cc1ccc2nc(NC(=O)CC(C)C(F)(F)F)c(-c3cccc(C(F)(F)F)c3)n2n1 (stereo not shown) [Compound 316]"
  pEC50: "> 6.30"
- compound: "CC(C)(C)CC(=O)Nc1nc2ccc(Cl)nn2c1-c1ccc(C(F)(F)F)cc1 [Compound 271]"
  pEC50: "> 6.30"
- compound: "O=C(Cc1ccc(F)cc1)Nc1nc2ccc(F)cn2c1-c1ccccc1 [Compound 92]"
  pEC50: "5.52 to 6.30"
- compound: "O=C(CCC1CC1)Nc1nc2ccc(F)cn2c1-c1cccc(OC(F)(F)F)c1 [Compound 274]"
  pEC50: "> 6.30"
- compound: "CC(C)(C)CC(=O)Nc1nc2ncc(Cl)cn2c1-c1cccc(Cl)c1 [Compound 319]"
  pEC50: "5.00 to 5.52"
- compound: "CC(C)(C)CC(=O)Nc1nc2ccc(F)cn2c1-c1cccc(C(F)(F)F)c1 [Compound 163]"
  pEC50: "> 6.30"
- compound: "CC(=O)OCC(C)(C)CC(=O)Nc1nc2ccc(F)cn2c1-c1ccc(OC(F)(F)F)cc1 [Compound 191]"
  pEC50: "5.00 to 5.52"
- compound: "O=C(CCC(F)(F)F)Nc1nc2ccc(F)cn2c1-c1ccc(OC(F)(F)F)c(F)c1 [Compound 303]"
  pEC50: "5.52 to 6.30"
- compound: "CC(C)(C)C(O)C(=O)Nc1nc2ccc(F)cn2c1-c1ccc(C(F)(F)F)cc1 (stereo not shown) [Compound 181]"
  pEC50: "5.52 to 6.30"
- compound: "CC1(CC(=O)Nc2nc3ccc(F)cn3c2-c2ccc(OC(F)(F)F)c(F)c2)CCCC1 [Compound 304]"
  pEC50: "> 6.30"
- compound: "CC(C)(C)NC(=O)Nc1nc2ccc(F)cn2c1-c1ccc(C(F)(F)F)cc1 [Compound 215]"
  pEC50: "5.52 to 6.30"
- compound: "O=C(CC1CCC1)Nc1nc2ccc(F)cn2c1-c1ccc(C(F)(F)F)cc1 [Compound 185]"
  pEC50: "> 6.30"
- compound: "CC(C)(C)CC(=O)Nc1nc2ccccn2c1-c1ccc(F)cc1 [Compound 221]"
  pEC50: "5.52 to 6.30"
- compound: "CC(CC(=O)Nc1nc2ncc(Cl)cn2c1-c1cccc(Cl)c1)C(F)(F)F (stereo not shown) [Compound 321]"
  pEC50: "5.00 to 5.52"
- compound: "O=C(CC(F)(F)F)Nc1nc2ccc(F)cn2c1-c1cccc(OC(F)(F)F)c1 [Compound 263]"
  pEC50: "5.52 to 6.30"
- compound: "Cc1ccc(-c2c(NC(=O)CC(C)(C)C)nc3ccc(F)cn23)cc1F [Compound 201]"
  pEC50: "> 6.30"
- compound: "Cc1ccc2nc(NC(=O)Cc3ccc(F)cc3)c(-c3cccc(OC(F)(F)F)c3)n2n1 [Compound 306]"
  pEC50: "> 6.30"
- compound: "CC(C)(C)CC(=O)Nc1nc2ccc(F)cn2c1-c1cccc(OC(F)(F)F)c1 [Compound 182]"
  pEC50: "> 6.30"
- compound: "O=C(CC(F)(F)F)Nc1nc2ccc(F)cn2c1-c1cccc(Cl)c1 [Compound 284]"
  pEC50: "5.52 to 6.30"
- compound: "CC(CC(=O)Nc1nc2ccc(F)cn2c1-c1cccc(C(F)(F)F)c1)C(F)(F)F (stereo not shown) [Compound 282]"
  pEC50: "> 6.30"
- compound: "CO[C@@H](C(=O)Nc1nc2ccc(F)cn2c1-c1ccc(OC(F)(F)F)cc1)c1ccccc1 [Compound 253]"
  pEC50: "5.00 to 5.52"
- compound: "O=C(CC1CCCC1)Nc1nc2ccccn2c1-c1ccc(F)cc1 [Compound 222]"
  pEC50: "5.52 to 6.30"

Values compiled from patent US9018208B2.
